Measured values drawn from patent US20220381657A1 for this set.

Here's what we have: Fluorescence quench Average numbers for Serius.

| COMPOUND | Fluorescence quench Average |
| --- | --- |
| CC(C)(C)CC(C)(C)c1ccc(OCCOCC[N+](C)(C)Cc2ccccc2)cc1 [#0441, Benzethonium Chloride] | 1.08 |
| CCCCCCCCCCCC[N+](C)(C)C.[Cl-] [#1021, Dodecyltrimethyl- ammonium chloride] | 1.11 |
| CCCCCCCCCCCCCC[N+](C)(C)Cc1ccccc1 [#0362] | 1.07 |
| Cl.O=C(O)CCP(CCC(=O)O)CCC(=O)O [#0197] | −0.05 |
| C[n+]1ccc(-c2cc[n+](C)cc2)cc1 [#0652] | 0.42 |

---

Let's look at some compounds and their measured 700 nm calibrated 420 nm Average.
tested on: bovine coagulated blood; experiment: Decoloring screening: heme eluted from bovine coagulated blood (OD420-OD700); conditions: decolorization; OD420 calibrated by OD700

| COMPOUND | ASSAY TARGET | 700 nm calibrated 420 nm Average |
| --- | --- | --- |
| CCN(CC)CCO [#1575, 2-Diethylamino-ethanol] | bovine coagulated blood | 2.41 |
| NCCCNCCNCCCN [#0277, N,N′-Bis(3-aminopropyl) ethylenediamine] | bovine coagulated blood | 1.20 |
| c1cnc(N2CCNCC2)nc1 [#1167, 1-(2-Pyrimidyl) piperazine] | bovine coagulated blood | 1.39 |
| NCCCCCO [#0003] | bovine coagulated blood | 1.83 |
| CCCCCCCCCCCC[N+](C)(C)C.[Cl-] [#1021, Dodecyltrimethyl- ammonium chloride] | bovine coagulated blood | 1.96 |
| OCCNCc1ccccc1 [#0389, N-Benzyl- ethanolamine] | bovine coagulated blood | 2.73 |
| NC(=O)c1cccnc1 [#0855, nicotinamide] | bovine coagulated blood | 2.63 |
| CC(O)CN(CCN(CC(C)O)CC(C)O)CCN(CC(C)O)CC(C)O (stereo not drawn) [#1105] | bovine coagulated blood | 1.20 |
| CCCCCCCCCCCCOS(=O)(=O)[O-].[Na+] [#1035, Sodium dodecyl sulfate] | bovine coagulated blood | 1.28 |
| Cl.O=C(O)CCP(CCC(=O)O)CCC(=O)O [#0197] | bovine coagulated blood | 4.28 |
| OCCN1CC1 [#1061] | bovine coagulated blood | 1.14 |
| CN(C)C(=N)N(C)C [#1444, 1,1,3,3-Tetramethylguanidine] | bovine coagulated blood | 1.38 |
| NCc1cccnc1 [#1102, 3-Picolylamine] | bovine coagulated blood | 2.46 |
| CCCCN(CCO)CCO [#0414, N-Butyldiethanolamine] | bovine coagulated blood | 1.30 |
| OCCCC1CCN(CCO)CC1 [#1226] | bovine coagulated blood | 2.20 |
| NCC1CCOCC1 [#0467, 4-Aminomethyl-tetrahydropyran] | bovine coagulated blood | 1.52 |
| CCN(CC)CCN [#0779, N,N-Diethyl-ethylenediamine] | bovine coagulated blood | 1.39 |
| Cc1cc(=O)n(-c2ccccc2)n1C [#0640, 2,3-Dimethyl-1-phenyl-5-pyrazolone] | bovine coagulated blood | 1.22 |
| CCCCCCCCCCCC[n+]1ccccc1.[Cl-] [#0635, 1-Dodecylpyridinium chloride] | bovine coagulated blood | 3.86 |
| CNC(=O)c1cccnc1 [#1283, N-Methyl- nicotinamide] | bovine coagulated blood | 2.98 |
| C[C@H](CCC(=O)[O-])[C@H]1CC[C@H]2[C@@H]3CC[C@@H]4C[C@H](O)CC[C@]4(C)[C@H]3C[C@H](O)[C@]12C.[Na+] [#1507, Sodium deoxycholate] | bovine coagulated blood | 1.27 |

---

Let's look at some compounds and their measured OD400.
details: Table 1

| COMPOUND | OD400 |
| --- | --- |
| C[C@H](CCC(=O)[O-])[C@H]1CC[C@H]2[C@@H]3CC[C@@H]4C[C@H](O)CC[C@]4(C)[C@H]3C[C@H](O)[C@]12C.[Na+] [#1507, Sodium deoxycholate] | 0.054 |
| CCCCCCCCCC(=O)N(C)CC(=O)[O-].[Na+] [#0703, N-Decanoylsarcosine sodium salt] | 0.047 |
| CN(C)C(=N)N(C)C | 0.072 |
| CCCCC(O)CO (centres unmarked) | 0.048 |
| CC(C)(C)N(CCO)CCO | 0.052 |
| CCCCCCCCCCCS(=O)(=O)[O-].[Na+] [#1419, Sodium 1-undecanesulfonate] | 0.056 |
| CC(CN)CCCN (centres unmarked) | 0.08 |
| CCCCCCCCCCS(=O)(=O)[O-].[Na+] [#0625, Sodium 1-decanesulfonate] | 0.046 |

---

System: bovine coagulated blood
Experiment: Decoloring screening: heme eluted from bovine coagulated blood (OD420-OD700)
Details: decolorization; OD420 calibrated by OD700
Procedure: A high-throughput screening system for evaluating the decoloring ability of various compounds was constructed. The screening system involved adding an aqueous solution of each compound to bovine coagulated blood and then measuring the absorbance of heme collected in the supernatant. Specifically, to bovine blood, an equal amount of 8% PFA solution was added, and reacted at 4° C. overnight. The mixed liquid was centrifuged at 1500×g for 5 minutes, and the supernatant containing PFA was discarded. […]
Let's look at some compounds and their measured 700 nm calibrated 420 nm Average.
MEASUREMENT NAME: 700 nm calibrated 420 nm Average

| COMPOUND | ASSAY TARGET | OBSERVED |
| --- | --- | --- |
| CN(C)C(=O)c1ccccc1 [#0788, N,N- Dimethyl- benzamide] | bovine coagulated blood | 1.26 |
| [Cl-].c1ccc(C[P+](c2ccccc2)(c2ccccc2)c2ccccc2)cc1 [#0425, Benzyltriphenyl-phosphonium chloride] | bovine coagulated blood | 1.14 |
| NCCCCCCO | bovine coagulated blood | 2.66 |
| NCCCCO | bovine coagulated blood | 1.22 |
| CC(CN)CCCN (stereo not shown) | bovine coagulated blood | 1.48 |
| OCCN(CCO)CCN(CCO)CCO | bovine coagulated blood | 1.29 |
| CC(=O)O.CCCCCCCCCCCCN [#0627, Dodecylamine acetate] | bovine coagulated blood | 2.21 |
| NCC1CCC(CN)CC1 (stereo not shown) | bovine coagulated blood | 3.25 |
| C[n+]1ccc(-c2cc[n+](C)cc2)cc1 | bovine coagulated blood | 2.01 |
| CC(C)(C)CC(C)(C)c1ccc(OCCOCC[N+](C)(C)Cc2ccccc2)cc1 [#0441, Benzethonium Chloride] | bovine coagulated blood | 3.40 |

---

Let's look at some compounds and their measured OD400.
details: Table 1

| COMPOUND | OD400 |
| --- | --- |
| OCC(O)c1ccccc1 (stereo not drawn) | 0.05 |
| Cc1ccnc(C)c1 | 0.051 |
| CCCCCCCCC(=O)[O-].[Na+] [#0865, Sodium nonanoate] | 0.051 |
| Cc1cccc(C)n1 | 0.063 |
| NCC1CCCC(CN)C1 (stereo not drawn) | 0.079 |
| C[C@H](CCC(=O)[O-])[C@H]1CC[C@H]2[C@@H]3CC[C@@H]4C[C@H](O)CC[C@]4(C)[C@H]3C[C@H](O)[C@]12C.[Na+] [#0562, Sodium deoxycholate] | 0.054 |
| CC(C)NCCCN | 0.061 |
| NCC1CCC(CN)CC1 (stereo not drawn) | 0.054 |
| CC(=O)O.CCCCCCCCCCCCN [#0627, Dodecylamine acetate] | 0.053 |

---

Let's look at some compounds and their measured RI.
assay: Refractive index of high-concentration aqueous solution; assay type: physicochemical; settings: Table 3; chemical conc. 70 wt %
Where a name gives a salt, the structure may show the parent alone.
MEASUREMENT NAME: RI

| COMPOUND | MEASUREMENT NAME | OBSERVED |
| --- | --- | --- |
| OCCNCc1ccccc1 | RI | 1.4814 |
| CN(C)CCSC(=N)N [#0830, dihydrochloride] | RI | 1.5021 |
| NCc1cccnc1 | RI | 1.4895 |
| Cc1cccc(C)c1NC1=NCCCS1.Cl [#1612, Xylazine hydrochloride] | RI | 1.4956 |
| CN(C)C(=O)c1ccccc1 [#0788, N,N- Dimethyl- benzamide] | RI | 1.4833 |

---

details: Table 1
Entries get a class label from measured pH. See ranges: bin A (below 9), bin B (9 to below 10), bin C (10 or more)

| COMPOUND | CAT |
| --- | --- |
| C[C@H](CCC(=O)[O-])[C@H]1CC[C@H]2[C@@H]3CC[C@@H]4C[C@H](O)CC[C@]4(C)[C@H]3C[C@H](O)[C@]12C.[Na+] [#0562, Sodium deoxycholate] | bin A |
| CC(CN)CCCN (stereo not drawn) | bin C |
| OCC(O)c1ccccc1 (stereo not drawn) | bin B |
| CCCCCCCCCCS(=O)(=O)[O-].[Na+] [#0625, Sodium 1-decanesulfonate] | bin A |
| CC1(C)CC(N)CC(C)(CN)C1 (stereo not drawn) | bin C |
| CC(C)CCN | bin B |
| CC(O)CN(CCN(CC(C)O)CC(C)O)CC(C)O (stereo not drawn) [Quadrol ®, reference compound] | bin C |
